# ASSAY_TARGET: Neuropeptide Y receptor type 1 (Homo sapiens) (UniProt P25929)
# Sequence (P25929 whole entry, looked up): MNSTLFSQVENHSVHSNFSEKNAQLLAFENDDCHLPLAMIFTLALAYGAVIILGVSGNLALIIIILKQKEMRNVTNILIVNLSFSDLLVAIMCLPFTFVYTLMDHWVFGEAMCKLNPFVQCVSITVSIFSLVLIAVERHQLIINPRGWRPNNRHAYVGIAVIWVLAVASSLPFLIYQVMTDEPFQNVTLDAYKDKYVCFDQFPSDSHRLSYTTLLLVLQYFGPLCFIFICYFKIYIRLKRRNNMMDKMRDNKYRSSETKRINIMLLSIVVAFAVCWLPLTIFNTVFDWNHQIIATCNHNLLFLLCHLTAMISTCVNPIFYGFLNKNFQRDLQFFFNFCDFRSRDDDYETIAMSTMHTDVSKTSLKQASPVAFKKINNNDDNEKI
# PROTOCOL_TEXT: NPY-Y1 receptor potentiators or agonists, primary screen, cell-based (AID 1304);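 note: cells stimulated with NPY at EC10 then isoproterenol at EC100; 0% = low agonist plus stimulus and 100% = saturating agonist plus stimulus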
# CONDITIONS_USED: NPY-Y1 expressing cells, potentiator/agonist activation; at 3.6 µM; stronger effect = higher value
Among all 220,000 compounds or so, about 800 (0.36%) were called active. The sample as a whole holds a higher share of actives than the screen did.
METRIC: activation

Here's what some known entries look like.
MOLECULE	METRIC	VALUE_MEASURED
O=C(Nc1nnc(Cc2ccc(Cl)cc2)s1)c1ccncc1	activation	-10.8% (inactive)
COc1ccc2[nH]c(=S)cc(C)c2c1	activation	-18.7% (inactive)

Now look at this entry.
Query block: Give activation for CCSc1sc(CC)cc1C=O
Result block: -2.95% (inactive)
